System: MOLT-4 leukemia
Test: NCI tumour cell line growth inhibition, 48 h
result_type: log10 TGI (log10 of the value in µM)
All values: log10 TGI [µM].

In the examples that follow, each entry is paired with its recorded log10 TGI.
CCN(CCCl)CCNc1c2ccccc2nc2ccc(OC)cc12; -0.47
COc1cc(-c2ccc(-c3ccc(C(=N)N)s3)s2)cc(OC)c1OC; 0.70
Cc1ccc(/C=C(\C#N)n2nnc3cc(F)c(F)cc32)cc1; 1.56
NC(N)=Nc1ccc(-n2nc(C(F)(F)F)cc2-c2ccc3c(ccc4ccccc43)c2)cc1; 0.69

Q: I have this molecule here, CC(=O)OC(C)(C)C1CCC(C)(C(O)COc2ccc(CCNC(=O)c3ccccc3)cc2)O1 (centres undefined) , and I need its recorded log10 TGI.
Ans: 1.63

Q: I have this molecule here, C=C1C(=O)O[C@H]2[C@H]1CC/C(Cn1cc(CCC)nn1)=C\CC[C@@]1(C)O[C@@H]21 , and I need its recorded log10 TGI.
Ans: 1.44

Q: I have this molecule here, CCCCCCCCCCCCCC(=O)OCC1OC(OC)C(NC(=O)N(CCCl)N=O)C(O)C1O (centres undefined) , and I need its recorded log10 TGI.
Ans: 1.47

Q: I have this molecule here, O=[N+]([O-])c1ccc2[nH]cc(-c3c4ccccc4cc4[nH]c5ccc([N+](=O)[O-])cc5c34)c2c1 , and I need its recorded log10 TGI.
Ans: 0.82

Q: I have this molecule here, C(=N\NC1=NCCCN1)/c1ccc(-c2cn3cc(/C=N/NC4=NCCCN4)ccc3n2)cc1 , and I need its recorded log10 TGI.
Ans: 1.07

Q: I have this molecule here, CC1CCN(c2nnc(Cl)cc2C(=O)c2ccccc2)CC1 , and I need its recorded log10 TGI.
Ans: 1.74

Q: I have this molecule here, CC(=O)OC1COC(N2C(=O)C(=O)c3cc(Br)c([N+](=O)[O-])cc32)C(OC(C)=O)C1OC(C)=O (centres undefined) , and I need its recorded log10 TGI.
Ans: 1.95

Q: I have this molecule here, C/C=C/C1(NS(=O)(=O)c2ccc(C)cc2)CCC(C(C)(C)C)CC1 (centres undefined) , and I need its recorded log10 TGI.
Ans: 1.60

Q: I have this molecule here, COC(=O)c1oc2c(C(=O)/C=C/c3ccc(OC)cc3)c(OCCCN3CCCCC3)ccc2c1C , and I need its recorded log10 TGI.
Ans: 0.70

Q: I have this molecule here, Cc1ccccc1NC(=O)NC(CC(N)=O)c1ccc2c(c1)nc(-c1cccc(Oc3ccc(C(C)(C)C)cc3)c1)n2CCCN1CCCCC1C (centres undefined) , and I need its recorded log10 TGI.
Ans: 0.98

====

Each record here notes measured TGI.
Test system: COLO 205 colon
Experiment: NCI tumour cell line growth inhibition, 48 h

In the examples that follow, each entry is paired with its recorded TGI.
O=C1/C(=C/c2ccc(O)cc2)CCC1CNc1ccc(Cl)cc1 (stereo not given); 3.24 µM
CC(C)(C)NCC(O)COc1cccc2[nH]c(C#N)cc12 (stereo not given); > 100 µM
CCCCCCCCCCCCC(Br)C(=O)SCCNC(=O)CCNC(=O)[C@@H](O)C(C)(C)COP(=O)(O)OP(=O)(O)OCC1OC(n2cnc3c(N)ncnc32)C(O)C1OP(=O)(O)O (stereo not given in full); > 56.5 µM

Q: # returns recorded TGI (system: COLO 205 colon) for Cc1cccc(C)c1NC(=O)C(=O)C1C(=O)N(c2ccccc2)N=C1N (stereo not given)
Ans: > 100 µM

Q: # returns recorded TGI (system: COLO 205 colon) for Cc1ccc(/C=C2\CCOC2=O)cc1
Ans: > 100 µM

Sourced from PubChem BioAssay (NCI)
